System: HepG2-TP53BP1-CLTA
MEASUREMENT_PROTOCOL: phenotypically active (imaging signature differs from DMSO and reproducible) at any of 0.3-9 uM (binary (1 = active, 0 = inactive)); higher = active
STUDY_CONDITIONS: treatment time: 24 h
A correct response names exactly one class from 1 = active, 0 = inactive

QUERY: Query: recorded result category for Cc1cc2c(F)c(Oc3ncnn4cc(OC[C@@H](C)OC(=O)[C@H](C)N)c(C)c34)ccc2[nH]1 [brivanib-alaninate] in this test
RESULT: 1

QUERY: Record lookup: outcome of this test for CN1C(=O)/C(=C2/Nc3ccccc3/C2=N/O)c2ccc(Br)cc21 ?
RESULT: 0

QUERY: Test call, this compound: O=C(NCC1CCCCN1)c1cc(OCC(F)(F)F)ccc1OCC(F)(F)F (configuration not stated) [flecainide]
RESULT: 0

QUERY: What did this assay record as the result for CC[C@H]1OC(=O)[C@H](C)[C@@H](O[C@H]2C[C@@](C)(OC)[C@@H](O)[C@H](C)O2)[C@H](C)[C@@H](O[C@@H]2O[C@H](C)C[C@H](N(C)C)[C@H]2O)[C@](C)(O)C[C@@H](C)C(=O)[C@H](C)[C@@H](O)[C@]1(C)O ?
RESULT: 0

QUERY: So what was the verdict on COc1cc(/C=C/c2ccc(OC)cc2OC)cc(OC)c1 in this test?
RESULT: 1

QUERY: Returns: the outcome recorded for O=c1cc(-c2ccccc2)oc2cc(O)cc(O)c12 in this assay.
RESULT: 0

QUERY: What is the recorded call for this compound in the test? CN1CC(=O)N2[C@H](c3ccc4c(c3)OCO4)c3[nH]c4ccccc4c3C[C@@H]2C1=O
RESULT: 0

====

For each record, write down the corresponding lowest phenotypically active concentration.
Tested on: A549-GM130-SQSTM1
MEASUREMENT_PROTOCOL: lowest phenotypically active concentration; higher = less potent
STUDY_CONDITIONS: treatment time: 24 h
// note: answer is a bare numeric in µM

QUERY: Which lowest phenotypically active concentration value belongs to CC(C)NCC(O)COc1ccc(CC(N)=O)cc1 (stereo not drawn) ?
RESULT: 9

QUERY: Which value of lowest phenotypically active concentration has been reported for CN1c2ccc([N+](=O)[O-])cc2N=C(c2ccc(C(=O)O)cc2)c2cc3c(cc21)C(C)(C)CCC3(C)C in the records?
RESULT: 9

QUERY: Find the recorded lowest phenotypically active concentration belonging to CN(C)CCCNc1c2c(=O)n(C)c(=O)nc-2n(C)c2ccccc12 and report it.
RESULT: 9

QUERY: # query: lowest phenotypically active concentration of entry CCOC(=O)c1c(CSc2ccccc2)n(C)c2cc(Br)c(O)c(CN(C)C)c12
RESULT: 9

QUERY: // lowest phenotypically active concentration lookup, key: NC(=O)Nc1sc(-c2ccc(F)cc2)cc1C(N)=O
RESULT: 3

====

Can you tell me phenotypically active for the items I'm about to list?
Tested on: HepG2-GM130-SQSTM1
MEASUREMENT_PROTOCOL: phenotypically active (imaging signature differs from DMSO and reproducible) at any of 0.3-9 uM (binary (1 = active, 0 = inactive)); higher = active
STUDY_CONDITIONS: treatment time: 24 h

QUERY: Report phenotypically active for O=S(=O)(NCCSSCCNS(=O)(=O)c1cc(Cl)ccc1Cl)c1cc(Cl)ccc1Cl please.
RESULT: 0 (inactive)

QUERY: Returns the measured phenotypically active for the input molecule. Input: NCC(=O)Nc1ccc(-n2nc(C(F)(F)F)cc2-c2ccc3c(ccc4ccccc43)c2)cc1
RESULT: 1 (active)

QUERY: Sample Cc1cc(Nc2ccc(NC(=O)c3ccc(Nc4ccnc5ccccc45)cc3)cc2)nc(N)n1 — what was its phenotypically active?
RESULT: 1 (active)

QUERY: Dear colleague, I am looking for the recorded phenotypically active of the following molecule: Clc1cccc(Nc2nnc(-c3ccccc3)c3ccccc23)c1
RESULT: 0 (inactive)

QUERY: Returns the measured phenotypically active for the input molecule. Input: COc1cc2nc(N3CCCN(C)CC3)nc(NC3CCN(Cc4ccccc4)CC3)c2cc1OC
RESULT: 1 (active)

QUERY: Using the record for CC(C)(C)c1cc(NC(=O)Nc2ccc(-c3cn4c(n3)sc3cc(OCCN5CCOCC5)ccc34)cc2)no1 [quizartinib] , report its phenotypically active.
RESULT: 1 (active)

QUERY: For the molecule shown here, O=C(/C=C/c1ccc(OCc2ccccc2)cc1)c1c(O)cc(OCc2ccccc2)cc1OCc1ccccc1 [4,2,4'-Tribenzyloxy-6'-hydroxychalcone] , give the reported phenotypically active.
RESULT: 0 (inactive)

QUERY: Which phenotypically active value is on record for C#C[C@]1(OC(C)=O)CC[C@H]2[C@@H]3CCC4=C[C@@H](OC(C)=O)CC[C@@H]4[C@H]3CC[C@@]21C [ethynodiol diacetate] ?
RESULT: 0 (inactive)

====

System: HepG2-CANX-COX4
MEASUREMENT_PROTOCOL: lowest phenotypically active concentration; higher = less potent
STUDY_CONDITIONS: treatment time: 24 h
Structures can show the parent of a compound that is named as a salt.
I'd be grateful if you could share measured lowest phenotypically active concentration for these entries.
Numeric only. Scale: µM

QUERY: Request the reported lowest phenotypically active concentration associated with Cc1cccc(-c2n[nH]cc2-c2ccc(F)c(-c3cnn(CCO)c3)c2)n1
RESULT: 9

QUERY: I have this compound here, C[C@@H](Nc1ncnc2[nH]c(-c3ccc(O)cc3)cc12)c1ccccc1 [PKI 166 hydrochloride] , and I need its recorded lowest phenotypically active concentration.
RESULT: 9

QUERY: Field request: lowest phenotypically active concentration | item: CC(C)COCC(CN(Cc1ccccc1)c1ccccc1)N1CCCC1 (centres undefined)
RESULT: 9

QUERY: Form field: reported lowest phenotypically active concentration of COc1ccc(S(=O)(=O)N(C(C)=O)c2ccccc2/C=C/c2cc[n+]([O-])cc2)cc1
RESULT: 3

QUERY: Quick one: lowest phenotypically active concentration for S=C(S)N1CCCC1 [Pyrrolidinedithiocarbamate ammonium] ?
RESULT: 3

QUERY: Requested field: lowest phenotypically active concentration. Item: C[C@@H](CN1CCC(n2c(=O)[nH]c3cc(Cl)ccc32)CC1)NC(=O)c1ccc2ccccc2c1
RESULT: 9

QUERY: Record request: lowest phenotypically active concentration value, item CCCS(=O)(=O)Nc1ccc(F)c(C(=O)c2c[nH]c3ncc(Cl)cc23)c1F
RESULT: 1

====

Exercise: for every item that follows, state its recorded lowest phenotypically active concentration.
Test system: HepG2-CANX-COX4
MEASUREMENT_PROTOCOL: lowest phenotypically active concentration; higher = less potent
STUDY_CONDITIONS: treatment time: 24 h
Write down the numeric answer in µM and omit the unit.

QUERY: For the compound N#Cc1c(C2CCNCC2)cc(-c2c(O)cccc2OCC2CC2)nc1N , what lowest phenotypically active concentration is on record?
RESULT: 9

QUERY: Any idea what its lowest phenotypically active concentration is? The compound is O=C1NCCCc2c1oc1ccc(O)cc21
RESULT: 9

QUERY: May I ask what lowest phenotypically active concentration has been recorded for CN1CCN([C@H]2CC[C@H](n3cc(-c4ccc(Oc5ccccc5)cc4)c4c(N)ncnc43)CC2)CC1 ?
RESULT: 1

QUERY: Look up lowest phenotypically active concentration: c1ccc(-c2n[nH]cc2-c2ccnc3ccccc23)nc1
RESULT: 9

QUERY: Given the entry N#C/C(=C(/N)Sc1ccc(N)cc1)c1ccccc1C(F)(F)F , report its measured lowest phenotypically active concentration.
RESULT: 3

QUERY: Please report the recorded lowest phenotypically active concentration for O=C(NC(NC(=S)Nc1ccc(F)c([N+](=O)[O-])c1)C(Cl)(Cl)Cl)C(c1ccccc1)c1ccccc1 (centres undefined) .
RESULT: 9

QUERY: Name the reported lowest phenotypically active concentration value associated with the compound COc1c(Nc2cc(C)[nH]n2)nc(Sc2ccc(S(=O)(=O)Cc3cccc([N+](=O)[O-])c3F)cc2F)nc1N1CCOCC1 [Centrinone]
RESULT: 3

====

System: WPMY1-TUBA1B-RELA
MEASUREMENT_PROTOCOL: phenotypically active (imaging signature differs from DMSO and reproducible) at any of 0.3-9 uM (binary (1 = active, 0 = inactive)); higher = active
STUDY_CONDITIONS: treatment time: 24 h
VALUE_TYPE: phenotypically active
Respond with the number and no other words.

QUERY: Param item = CCOc1ccc2nc(S(N)(=O)=O)sc2c1 [ethoxzolamide] ; retrieve measured phenotypically active.
RESULT: 0

QUERY: Name the recorded phenotypically active for C#C[C@]1(OC(C)=O)CC[C@H]2[C@@H]3CCC4=CC(=NO)CC[C@@H]4[C@H]3CC[C@@]21CC [norgestimate] .
RESULT: 0

QUERY: Quick one: phenotypically active for CC[N+](CC)(CCNC(=O)C(=O)NCC[N+](CC)(CC)Cc1ccccc1Cl)Cc1ccccc1Cl ?
RESULT: 0

QUERY: Entry under review: C[C@@H]1C(=O)O[C@H]2C[C@@]34[C@H]5C[C@@H](C(C)(C)C)[C@]36[C@@H](OC(=O)[C@@H]6O)O[C@@]4(C(=O)O5)[C@]21O [Ginkgolide A] . Reported phenotypically active?
RESULT: 0

QUERY: Value lookup for phenotypically active; key = O=C(CCCc1ccc(-c2ccccc2F)cc1)Nc1ccc(O)cc1
RESULT: 1

QUERY: Reported phenotypically active for COc1cc(C=O)c([N+](=O)[O-])cc1OC : what is it?
RESULT: 0

QUERY: Query (molecule): Cn1cc(CCn2cnc(-c3cnn(C)c3)c2-c2ccc(C#N)cc2)cn1 ; field requested: phenotypically active
RESULT: 0

QUERY: Could you share which phenotypically active value was measured for Nc1c2c(nc3ccccc13)CCCC2 ?
RESULT: 0

QUERY: For the molecule COCc1nc2c([nH]1)c(=O)n(C)c(=O)n2CC(C)C , what phenotypically active is on record?
RESULT: 0

QUERY: Quick one: phenotypically active for Nc1nccc(-c2ccc3noc(-c4ccc(Cl)cc4)c3c2)n1 ?
RESULT: 1
